target: Solute carrier organic anion transporter family member 2B1 (Homo sapiens, UniProt O94956); assay: Inhibition of human liver OATP2B1 expressed in HEK293 Flp-In cells assessed as reduction in [3H]E3S uptake at 20 uM incubated for 5 mins by scintillation counting; conditions: hek293, 5 min
Sequence (O94956 whole entry): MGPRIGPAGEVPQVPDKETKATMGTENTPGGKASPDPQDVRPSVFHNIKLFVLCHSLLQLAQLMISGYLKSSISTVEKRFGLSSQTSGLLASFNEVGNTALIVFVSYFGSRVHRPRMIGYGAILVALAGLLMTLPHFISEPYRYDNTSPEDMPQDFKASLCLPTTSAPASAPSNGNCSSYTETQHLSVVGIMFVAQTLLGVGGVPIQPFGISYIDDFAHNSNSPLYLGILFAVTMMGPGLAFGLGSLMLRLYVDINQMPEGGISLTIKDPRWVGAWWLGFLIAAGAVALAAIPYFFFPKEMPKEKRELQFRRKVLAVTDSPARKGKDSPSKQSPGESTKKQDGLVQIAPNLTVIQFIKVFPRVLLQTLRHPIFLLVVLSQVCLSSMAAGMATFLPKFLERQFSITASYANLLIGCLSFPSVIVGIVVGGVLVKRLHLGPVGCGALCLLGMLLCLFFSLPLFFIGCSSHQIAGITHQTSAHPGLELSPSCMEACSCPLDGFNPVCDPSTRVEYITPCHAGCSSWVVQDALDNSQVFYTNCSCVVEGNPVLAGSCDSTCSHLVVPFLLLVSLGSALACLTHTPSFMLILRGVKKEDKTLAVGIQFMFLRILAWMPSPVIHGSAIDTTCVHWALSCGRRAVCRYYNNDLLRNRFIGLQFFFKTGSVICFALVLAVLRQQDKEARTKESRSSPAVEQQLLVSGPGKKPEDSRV
Readings of INH for the listed molecules
Numeric only. Scale: %

Known INH results, listed for orientation:
* COCCc1ccc(OCC(O)CNC(C)C)cc1 (stereo unspecified) | 30.5
* CO[C@H]1/C=C/O[C@@]2(C)Oc3c(C)c(O)c4c(O)c(cc(O)c4c3C2=O)NC(=O)/C(C)=C\C=C\[C@H](C)[C@H](O)[C@@H](C)[C@@H](O)[C@@H](C)[C@H](OC(C)=O)[C@@H]1C | 74.8
* C[C@]12CC[C@@H]3c4ccc(O)cc4CC[C@H]3[C@@H]1CC[C@@H]2O[C@@H]1O[C@H](C(=O)O)[C@@H](O)[C@H](O)[C@H]1O [ESTRADIOL 17B GLUCURONIDE] | -12.2
* Clc1ccccc1C(c1ccccc1)(c1ccccc1)n1ccnc1 | -37.1
* CC[C@H]1OC(=O)[C@H](C)[C@@H](O[C@H]2C[C@@](C)(OC)[C@@H](O)[C@H](C)O2)[C@H](C)[C@@H](O[C@@H]2O[C@H](C)C[C@H](N(C)C)[C@H]2O)[C@](C)(O)C[C@@H](C)C(=O)[C@H](C)[C@@H](O)[C@]1(C)O | -19

Input O=c1c(-c2ccc(O)cc2)coc2cc(O)cc(O)c12 . Output INH: 67.9
